Parameter: inhibition. Scope: all listed entries.
Molecular target: Alpha-1A adrenergic receptor (Homo sapiens) (UniProt P35348)
Sequence (whole entry): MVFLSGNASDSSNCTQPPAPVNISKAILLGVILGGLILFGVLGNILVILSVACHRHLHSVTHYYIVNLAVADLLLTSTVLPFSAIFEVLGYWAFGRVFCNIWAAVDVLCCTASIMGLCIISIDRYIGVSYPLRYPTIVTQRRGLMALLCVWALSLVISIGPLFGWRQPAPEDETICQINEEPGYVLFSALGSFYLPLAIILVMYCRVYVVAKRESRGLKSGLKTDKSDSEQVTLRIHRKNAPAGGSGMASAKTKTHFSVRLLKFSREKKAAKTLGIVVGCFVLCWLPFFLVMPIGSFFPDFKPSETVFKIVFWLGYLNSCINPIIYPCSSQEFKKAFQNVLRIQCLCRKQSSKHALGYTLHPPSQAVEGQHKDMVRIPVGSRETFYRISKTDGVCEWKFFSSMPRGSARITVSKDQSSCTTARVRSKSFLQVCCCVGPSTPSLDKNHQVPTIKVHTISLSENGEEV
Conditions: Compound concentration 10 µM
Description: PDSP Primary Binding target: ADRA1A - Compounds are tested at 10 uM concentration, plate are incubated at room temperature in the dark for 90 minutes. Reaction are stopped by vacuum filtration onto 0.3% polyethyleneimine soaked filter mats using Filtermate harvester. Scintilation cocktail is then melted onto microwave-dried filters on a hot plate and the radio activity is counted in Microbia counter.

[
  {
    "smiles": "COc1cccc([C@@H](C)NCCCc2ccccc2Cl)c1",
    "inhibition / %": 24
  },
  {
    "smiles": "CC(C)(C)NC[C@H](O)COc1nsnc1N1CCOCC1",
    "inhibition / %": 2.77
  },
  {
    "smiles": "CCc1nn2c(C)cc(C)nc2c1Cc1ccc(-c2nnc(C3CCNCC3)o2)cc1",
    "inhibition / %": -9.75
  },
  {
    "smiles": "CC(C)Oc1ccccc1C(=O)Nc1ccccc1C(=O)Nc1cccc(S(=O)(=O)C(F)(F)F)c1",
    "inhibition / %": -8.65
  }
]

====

Parameter: inhibition. Scope: all listed entries.
molecular target: Alpha-1A adrenergic receptor (Homo sapiens); conditions: Compound concentration 10 µM
measure: inhibition (%)

[
  {
    "molecule": "O=C(Cc1ccc(Cl)c(Cl)c1)N1CCCC[C@H]1CN1CCCC1",
    "measure": "inhibition",
    "result_number": 31.2
  },
  {
    "molecule": "CN1C[C@H](C(=O)N[C@]2(C)O[C@@]3(O)[C@@H]4CCCN4C(=O)[C@H](Cc4ccccc4)N3C2=O)C[C@@H]2c3cccc4[nH]cc(c34)C[C@H]21",
    "measure": "inhibition",
    "result_number": 99.4
  },
  {
    "molecule": "CSc1ccc(C(=O)N[C@@H]2CCCC[C@@H]2NC(=O)CNC(=O)c2cc(C(F)(F)F)ccc2NC(=O)NC(C)C)cc1",
    "measure": "inhibition",
    "result_number": 7.53
  },
  {
    "molecule": "CC(C)NCC(O)COc1ccc(CCOCC2CC2)cc1 (stereo not drawn)",
    "measure": "inhibition",
    "result_number": -7.39
  },
  {
    "molecule": "COc1ccc(S(=O)(=O)c2cc(OC)ccc2S(=O)(=O)c2ccc([C@H](C)NS(C)(=O)=O)cc2)cc1",
    "measure": "inhibition",
    "result_number": 22.6
  },
  {
    "molecule": "CC(C)[C@H](CO)Nc1nc(Nc2cccc(Cl)c2)c2ncn(C(C)C)c2n1",
    "measure": "inhibition",
    "result_number": 1.19
  },
  {
    "molecule": "COc1cccc(-c2c(C)n(Cc3c(F)cccc3C(F)(F)F)c(=O)n(C[C@H](NCCCC(=O)O)c3ccccc3)c2=O)c1F",
    "measure": "inhibition",
    "result_number": 7.84
  },
  {
    "molecule": "O=C(c1cc2c(cc1F)OC(c1ccc(F)cc1)(c1ccc(Cl)cc1Cl)O2)N1CCOCC1 (stereo not drawn)",
    "measure": "inhibition",
    "result_number": 14.6
  }
]
